tested on: THP-1; assay: Growth inhibition of human THP1 cells incubated for 72 hrs by MTT assay; assay type: functional, cell-based; details: THP-1, 72 h
measuredParameter: pIC50
For clarity, pIC50 is expressed as the negative log10 of concentration in mol/L.

Prompt: Observed pIC50 on THP-1 for COc1ccn2cc(-c3ccc(NC(=O)Nc4cc(C(C)(C)C)on4)cc3)nc2c1 , please.
Completion: 5.47

---

test system: U-251; assay: Growth inhibition of human U251 cells incubated for 72 hrs by MTT assay; assay type: functional, cell-based; conditions: U-251, 72 h
pIC50: −log10 of the molar value.
measuredParameter: pIC50

Prompt: Give the measured pIC50 of COc1ccn2cc(-c3ccc(NC(=O)Nc4cc(C(C)(C)C)on4)cc3)nc2c1 .
Completion: < 4.70

---

experiment: Solubility in SPSS; assay type: physicochemical
measuredParameter: solubility (µg/mL)
# number only, unit µg/mL dropped from output

Prompt: Give the measured solubility of COc1ccn2cc(-c3ccc(NC(=O)Nc4cc(C(C)(C)C)on4)cc3)nc2c1 .
Completion: 1.47

---

system: MV4-11; test: Cytotoxicity against human MV4-11 cells incubated for 72 hrs by MTT assay; assay type: functional, cell-based; conditions: MV4-11, 72 h
Measured pIC50 by item
For clarity, pIC50 is expressed as the negative log10 of concentration in mol/L.

# example entries with known answers
Prompt: Give the measured pIC50 of Cc1ccc2nc(-c3ccc(NC(=O)Nc4cc(C(C)(C)C)on4)cc3)cn2c1 .
Completion: 8.39

Prompt: Check CCOc1ccn2cc(-c3ccc(NC(=O)Nc4cc(C(C)(C)C)on4)cc3)nc2c1 too.
Completion: 7.94

Prompt: Check COc1ccn2cc(-c3ccc(NC(=O)Nc4cc(C(C)(C)C)on4)cc3)nc2c1 too.
Completion: 8.55

Prompt: Check CC(C)(C)c1cc(NC(=O)Nc2ccc(-c3cn4ccccc4n3)cc2)no1 too.
Completion: 8.51

Prompt: Check CC(C)(C)c1cc(NC(=O)Nc2ccc(-c3cn4ccncc4n3)cc2)no1 too.
Completion: 7.35

Prompt: Check C#Cc1ccc2nc(-c3ccc(NC(=O)Nc4cc(C(C)(C)C)on4)cc3)cn2c1 too.
Completion: 8.06

Prompt: Check CC(C)(C)c1cc(NC(=O)Nc2ccc(-c3cn4c(n3)sc3cc(OCCN5CCOCC5)ccc34)cc2)no1 [QUIZARTINIB] too.
Completion: 9.17

From here, focus on the item given below.
Prompt: Give the measured pIC50 of CC(C)(C)c1cc(NC(=O)Nc2ccc(-c3cn4cc(I)ccc4n3)cc2)no1 .
Completion: 7.01

---

Measured pIC50 by item
test system: MV4-11; assay: Cytotoxicity against human MV4-11 cells incubated for 72 hrs by MTT assay; format: functional, cell-based; details: MV4-11, 72 h
For clarity, pIC50 is expressed as the negative log10 of concentration in mol/L.

# example entries with known answers
Prompt: Observed pIC50 on MV4-11 for CC(C)(C)c1cc(NC(=O)Nc2ccc(-c3cn4cc(Cl)ccc4n3)cc2)no1 , please.
Completion: 7.61

Prompt: Check Cc1cccn2cc(-c3ccc(NC(=O)Nc4cc(C(C)(C)C)on4)cc3)nc12 too.
Completion: 6.60

Prompt: Check CC(C)(C)c1cc(NC(=O)Nc2ccc(-c3cn4cccc(Cl)c4n3)cc2)no1 too.
Completion: 6.45

Prompt: Check CC(C)(C)c1cc(NC(=O)Nc2ccc(-c3nc4ccccc4o3)cc2)no1 too.
Completion: 7.08

Prompt: Check CC(C)(C)c1cc(NC(=O)Nc2ccc(-c3cn4ccc(Cl)cc4n3)cc2)no1 too.
Completion: 8.23

Prompt: Check CC(C)(C)c1cc(NC(=O)Nc2ccc(-c3cn4cc(C5CC5)ccc4n3)cc2)no1 too.
Completion: 7.80

New cases:
Prompt: Observed pIC50 on MV4-11 for C#Cc1ccn2cc(-c3ccc(NC(=O)Nc4cc(C(C)(C)C)on4)cc3)nc2c1 , please.
Completion: 8.46

Prompt: Check CC(C)(C)c1cc(NC(=O)Nc2ccc(-c3cn4cc(Br)ccc4n3)cc2)no1 too.
Completion: 7.35

Prompt: Check CC(C)(C)c1cc(NC(=O)Nc2ccc(-c3cc4ccccc4o3)cc2)no1 too.
Completion: 6.71

Prompt: Check CC(=O)Oc1ccn2cc(-c3ccc(NC(=O)Nc4cc(C(C)(C)C)on4)cc3)nc2c1 too.
Completion: 7.53

Prompt: Check CC(C)(C)c1cc(NC(=O)Nc2ccc(-c3nc4ccccc4s3)cc2)no1 too.
Completion: 6.76
